# Tested on: KRas Q61H mutant
# ASSAY OVERVIEW: Ras GTP Binding Domain Inhibition Assay (Ras Superfamily Assay)
# STUDY CONDITIONS: 20 μM compound, without SOS
VALUE TYPE: KRas Q61H mutant: % inh.

# MOLECULE, VALUE TYPE, OBSERVED
data = [
    ("Cc1c(-c2ccn(C(C)C)n2)cn2nc(-c3ccccn3)nc(O)c12 [Compound 8]", "KRas Q61H mutant: % inh.", "0 (0 = 0% inhibition)"),
    ("Cc1c(-c2ccn(C(C)C)n2)cn2nc(-c3nccn3C)nc(Nc3nc(C4CC4)no3)c12 [Compound 70]", "KRas Q61H mutant: % inh.", "A (A = 1-25% inhibition)"),
    ("COCCNc1nc(-c2nccn2C)nn2cc(-c3cccc(OC)c3Cl)c(C)c12 [Compound 16]", "KRas Q61H mutant: % inh.", "A (A = 1-25% inhibition)"),
    ("COCCO[C@H]1C[C@H](Nc2nc(-c3nccn3C)nn3cc(-c4ccn(C(C)C)n4)c(C)c23)C1 [Compound 92]", "KRas Q61H mutant: % inh.", "0 (0 = 0% inhibition)"),
]
